Hello, the source for this data is paper PMC11237593, in case you need it.

Reported kon values are given for each entry in this list.
# target-under-test: T1, OC43 S1B+C (S1B and S1C domains of the hCoV-OC43 spike glycoprotein) (human coronavirus OC43, UniProt P36334 321-675)
# T1 construct: also called recombinant OC43 S1B+C; recombinant OC43 protein; source: Expi293F, transfected, purified from supernatant (Ni-NTA IMAC, SEC); not shown: His6, C-terminal, cleaved
# T1 sequence (looked up): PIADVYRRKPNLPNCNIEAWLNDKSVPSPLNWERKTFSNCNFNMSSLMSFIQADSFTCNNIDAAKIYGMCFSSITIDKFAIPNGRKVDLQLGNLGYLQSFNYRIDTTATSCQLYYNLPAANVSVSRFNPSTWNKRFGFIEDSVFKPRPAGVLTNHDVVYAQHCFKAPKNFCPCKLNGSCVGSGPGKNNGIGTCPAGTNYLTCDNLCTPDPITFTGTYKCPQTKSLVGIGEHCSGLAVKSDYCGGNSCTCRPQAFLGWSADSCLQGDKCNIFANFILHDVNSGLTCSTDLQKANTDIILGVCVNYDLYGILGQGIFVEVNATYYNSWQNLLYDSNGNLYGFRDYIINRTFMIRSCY
# method-notes: BLI
# condition-info: both partners purified
Write the answer as a number in M⁻¹ s⁻¹, unit excluded.

WNb 298 (VHH) VHH: QVQLQESGGGLVQPGGSLRLSCAASGRTFSDYFMGWFRQAPGKEREFVASISWSGGTTYYADSVKGRFTISRDNAKNTVYLQMNSLKPEDTAVYYCAAEIDYGLGLHAAADFGSWGQGTQVTVSS :: 111000

Lab note: measured kon of WNb 276 (VHH) VHH: QVQLQESGGGLVQSGGSLRLSCAASGFTFSNYGMMWVRQAPGKGVEWVSRIDSDGTITLYKDSVKGRFTISRDNAKNMLYLQMESLKPEDTALYYCIKVMDWVPGRAPPFRGQGTQVTVSS was 82000
